assay.explanation: Test Example 1: Pharmacokinetic study in rats (intravenous)
Format: in vivo
experimental.setup: rat; SD rats, 5 mg/kg intravenous injection, plasma
measured.parameter: half-life (h)

- smiles.entry: "[2H]C([2H])(CC[C@@H](C(=O)O)N1Cc2c(cc(O)c3c2O[C@@](C)(CC/C=C(\\C)CCC=C(C)C)[C@@H](O)C3)C1=O)N1Cc2c(cc(O)c3c2O[C@@](C)(CC/C=C(\\C)CCC=C(C)C)[C@@H](O)C3)C1=O"
  measured.parameter: "half-life"
  endpoint.result: 8.94
- smiles.entry: "CC(C)=CCC/C(C)=C/CC[C@]1(C)Oc2c(c(O)cc3c2CN(CCC[C@@H](C(=O)O)N2Cc4c(cc(O)c5c4O[C@@](C)(CC/C=C(\\C)CCC=C(C)C)[C@@H](O)C5)C2=O)C3=O)C[C@@H]1O"
  measured.parameter: "half-life"
  endpoint.result: 6.69
